Values were extracted from patent US20250084091A1.

target: SARS-CoV-2 main protease (Mpro) (Severe acute respiratory syndrome coronavirus 2); experiment: biochemical; conditions: Table 2; read-out: Enzyme IC50
pIC50 values by entry
Scale note: pIC50 = -log10(concentration in M).

Some entries whose results are on file:
Cc1cncc(C(=O)N2CCN(C(c3ccccc3)c3cccc(C(F)(F)F)c3)CC2)c1 (stereo not shown) [MKP-1276]
6.68
O=C(c1cc[nH]c(=O)c1)N1CCN(C(c2ccccc2)c2ccccc2)CC1 [NZ-769]
4.95
Cc1cncc(C(=O)N2CCC(=C(c3ccccn3)c3ccccn3)CC2)c1 [MKP-1422]
6.96

// next entry
Query: Please report pIC50 with SARS-CoV-2 main protease (Mpro) (Severe acute respiratory syndrome coronavirus 2) for item CS(=O)(=O)c1ccccc1C(c1cccc(F)c1)N1CCN(C(=O)c2cncc3cc[nH]c23)CC1 (stereo not shown) [NZ-816] .
Result: 7.52
